target: truncated PI3Kα (p110α/iSH2 p85α) (Homo sapiens (Human), UniProt P42336); assay: PI3KA_Act fluorescence polarization kinase assay (Ki); format: biochemical; conditions: 1 mM ATP
Sequence (P42336 whole entry, the tested form may be a part): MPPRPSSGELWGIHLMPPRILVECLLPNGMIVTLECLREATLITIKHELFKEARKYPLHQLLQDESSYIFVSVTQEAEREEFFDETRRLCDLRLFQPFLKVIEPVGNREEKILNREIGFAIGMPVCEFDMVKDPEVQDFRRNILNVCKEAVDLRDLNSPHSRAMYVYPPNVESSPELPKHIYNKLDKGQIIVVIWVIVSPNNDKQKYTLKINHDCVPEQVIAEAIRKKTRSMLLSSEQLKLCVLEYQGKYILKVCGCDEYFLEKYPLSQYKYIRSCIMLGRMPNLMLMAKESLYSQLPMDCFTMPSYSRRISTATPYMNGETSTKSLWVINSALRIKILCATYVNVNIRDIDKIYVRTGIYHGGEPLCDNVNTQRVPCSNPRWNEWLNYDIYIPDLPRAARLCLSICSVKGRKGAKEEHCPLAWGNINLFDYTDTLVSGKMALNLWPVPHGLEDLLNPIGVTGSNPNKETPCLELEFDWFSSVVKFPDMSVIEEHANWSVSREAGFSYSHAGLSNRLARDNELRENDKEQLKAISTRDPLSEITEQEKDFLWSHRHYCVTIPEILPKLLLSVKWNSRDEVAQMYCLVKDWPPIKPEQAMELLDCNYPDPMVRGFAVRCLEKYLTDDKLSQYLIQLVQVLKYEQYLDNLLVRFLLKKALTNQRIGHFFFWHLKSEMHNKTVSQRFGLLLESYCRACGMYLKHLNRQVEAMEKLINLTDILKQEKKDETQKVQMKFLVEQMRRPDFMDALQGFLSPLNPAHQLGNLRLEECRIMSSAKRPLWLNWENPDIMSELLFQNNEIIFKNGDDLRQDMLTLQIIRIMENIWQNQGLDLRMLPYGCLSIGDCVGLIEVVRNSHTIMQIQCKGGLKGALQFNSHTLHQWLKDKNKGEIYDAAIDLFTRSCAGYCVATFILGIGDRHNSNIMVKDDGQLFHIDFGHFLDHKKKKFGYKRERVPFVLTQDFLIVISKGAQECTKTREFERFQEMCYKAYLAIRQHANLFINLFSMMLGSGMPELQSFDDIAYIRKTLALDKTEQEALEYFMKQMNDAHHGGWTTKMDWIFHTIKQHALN
Give measured PI3KA_Act Ki for each item. Keep answers brief.
Numbers only, in nM.

Some molecules with recorded PI3KA_Act Ki:
{"smi": "CNC(C)(C)C(=O)N1CC[C@](C)(N2CCc3c(-c4cnc(N)nc4)nc(N4CCOCC4)nc32)C1.Cl", "readout_unit": "nM", "PI3KA_Act Ki": 0.025}
{"smi": "CC(C)(O)C(=O)N1CC[C@](C)(N2CCc3c(-c4cnc(N)nc4)nc(N4CCOCC4)nc32)C1", "readout_unit": "nM", "PI3KA_Act Ki": 0.030}
{"smi": "CNC(=N)N1CC[C@](C)(N2CCc3c(-c4cnc(N)nc4)nc(N4CCOC[C@@H]4C)nc32)C1", "readout_unit": "nM", "PI3KA_Act Ki": 0.109}

Hi there! I need PI3KA_Act Ki for each item below, if you can.
1. C[C@H]1COCCN1c1nc(-c2cnc(N)nc2)c2c(n1)N([C@@]1(C)CCN(C(=O)C(C)(C)N)C1)CC2
2. CC(C)S(=O)(=O)N1CC[C@@H](N2CCc3c(-c4cnc(N)nc4)nc(N4CCOCC4)nc32)C1
3. C[C@@H](O)C(=O)N1CC[C@](C)(N2CCc3c(-c4cnc(N)nc4)nc(N4CCOC[C@@H]4C)nc32)C1

result:
1: 0.024; 2: 0.151; 3: 0.037

###

molecular target: truncated PI3Kα (p110α/iSH2 p85α) (Homo sapiens (Human), UniProt P42336); assay: PI3KA_Act fluorescence polarization kinase assay (Ki); type: biochemical; settings: 1 mM ATP
parameter_measured: PI3KA_Act Ki (nM)
Numbers only, in nM.

Reference set (2 entries):
{"smi": "CNS(=O)(=O)N1C[C@@H](O)[C@H](N2CCc3c(-c4cnc(N)nc4)nc(N4CCOC[C@@H]4C)nc32)C1", "PI3KA_Act Ki, nM": 0.126}
{"smi": "C[C@H]1COCCN1c1nc(-c2cnc(N)nc2)c2c(n1)N(C1CN(C(=O)OCC(=O)N(C)C)C1)CC2", "PI3KA_Act Ki, nM": 0.103}

Below are 2 compounds. Give each one its PI3KA_Act Ki.
1. COCCS(=O)(=O)N1CC(N2CCc3c(-c4cnc(N)nc4)nc(N4CCOC[C@@H]4C)nc32)C1
2. C[C@]1(N2CCc3c(-c4cnc(N)nc4)nc(N4CCOCC4)nc32)CCN(C(=O)C2(N)CC2)C1.Cl

result:
0.116
0.234

State the recorded PI3KA_Act Ki for every item in the following list.
1. COC(=O)N1CC[C@](C)(N2CCc3c(-c4cnc(N)nc4)nc(N4CCOCC4)nc32)C1
2. C[C@H]1COCCN1c1nc(-c2cnc(N)nc2)c2c(n1)N(C1CN(S(=O)(=O)c3cn(C)cn3)C1)CC2

result:
[0.030, 0.286]

query: Please report the measured PI3KA_Act Ki for `C[C@H]1COCCN1c1nc(-c2cnc(N)nc2)c2c(n1)N([C@]13CNC[C@H]1C3)CC2.Cl`
result: 2.624

###

For each entry below, report its PI3KA_Act Ki value.
molecular target: truncated PI3Kα (p110α/iSH2 p85α) (Homo sapiens (Human), UniProt P42336); assay: PI3KA_Act fluorescence polarization kinase assay (Ki); format: biochemical; details: 1 mM ATP

{"compound": "C[C@H]1COCCN1c1nc(-c2cnc(N)nc2)c2c(n1)N([C@@]1(C)CCN(C(=O)[C@](C)(N)CO)C1)CC2.Cl", "subject_of_test": "truncated PI3Kα (p110α/iSH2 p85α) (Homo sapiens (Human), UniProt P42336)", "PI3KA_Act Ki": "<0.018 nM"}
{"compound": "CC(C)[C@@H](N)C(=O)N1CC[C@](C)(N2CCc3c(-c4cnc(N)nc4)nc(N4CCOCC4)nc32)C1.Cl", "subject_of_test": "truncated PI3Kα (p110α/iSH2 p85α) (Homo sapiens (Human), UniProt P42336)", "PI3KA_Act Ki": "0.022 nM"}
{"compound": "CC1(O)CN(C(=O)N2CC[C@](C)(N3CCc4c(-c5cnc(N)nc5)nc(N5CCOCC5)nc43)C2)C1", "subject_of_test": "truncated PI3Kα (p110α/iSH2 p85α) (Homo sapiens (Human), UniProt P42336)", "PI3KA_Act Ki": "<0.018 nM"}
{"compound": "Cn1cnc(S(=O)(=O)N2CC(N3CCc4c(-c5cnc(N)nc5)nc(N5CCOCC5)nc43)C2)c1", "subject_of_test": "truncated PI3Kα (p110α/iSH2 p85α) (Homo sapiens (Human), UniProt P42336)", "PI3KA_Act Ki": "0.344 nM"}
{"compound": "CC(=O)N1CC[C@@](C)(N2CCc3c(-c4cnc(N)nc4)nc(N4CCOCC4)nc32)C1 [Example 259]", "subject_of_test": "truncated PI3Kα (p110α/iSH2 p85α) (Homo sapiens (Human), UniProt P42336)", "PI3KA_Act Ki": "0.139 nM"}

Now look at this one.
query: Complete the entry with PI3KA_Act Ki for `CP(C)(=O)N1CC(N2CCc3c(-c4cnc(N)nc4)nc(N4CCOCC4)nc32)C1`
result: 1.162 nM
